System: MOLT-4 leukemia
method.notes: NCI-60 one-dose screen, 48 h (100 = growth as untreated, 0 = no growth, -100 = all killed)
study.conditions: 10 µM unless noted
This is part of a sample that, as a whole, favours compounds with a hit. Of some 83,000 tested, about 20% had one in any assay.
measure.name: growth (%)
Provide only the numeric value, understood in %.

Consider the following illustrative entries.
compound=CCN(CC)CCOc1ccc(C(=C(C)c2ccc(OC)cc2)c2ccc(OCCN(CC)CC)cc2)cc1 endpoint_value=1.17
compound="Cc1[nH]c(C(=O)Nc2ccc(C(N)=O)cc2N2CCOC(C)C2)c(Cl)c1Cl (centres undefined)" endpoint_value=96.4
compound=CC1(C)CC[C@]23CC[C@]4(C)[C@H](CC[C@@H]5[C@@]6(C)CC[C@H](N)C(C)(C)[C@@H]6CC[C@]54C)[C@H]2[C@H]1OC3 endpoint_value=-13.3

Entry `CCOC(=O)c1c(NC(=O)c2cccc(C(F)(F)F)c2)sc2c3c(ccc12)OCN(C)C3` ; growth = -48.5

Please fill in: growth reported for `COc1ccc(OC)c(CCn2cncc2-c2c[nH]c3ccc(Cl)cc23)c1` = 25

Lab book: growth of `CN1CCN(c2ccc(Nc3nc(NCCNC(=O)c4ccccc4)c4sccc4n3)cc2)CC1` noted as 13.9

growth in this record for CC(C)C(/C=C/c1[nH]ncc1-c1cc(Cl)ccc1O)N1CCOCC1 (centres undefined) : 86

// growth lookup, compound = `CCCC[n+]1ccc(SCC(=O)n2ccc3ccccc32)c2ccccc21` , result: 83.1

Input `COC(=O)CCSC1=C(C)C(=O)c2ccccc2C1=O` . Output growth: 31.8

The reported value for `CN(C)S(=O)(=O)c1ccc(-c2nc(C(Cl)Cl)nc3cc(-c4ccc(F)cc4)nn23)cc1` in terms of growth is 3.19

Entry `CCOC(=O)c1ccc(NC2=C(Cl)C(=O)c3nc(C)ccc3C2=O)cc1` ; growth = 16.3

Recorded growth (compound `O=C1Nc2ccccc2/C1=C/c1ccc(OCC(=O)c2ccccc2)cc1` ): 97.8

###

compounds and their reported growth
System: M14 melanoma
method.notes: NCI-60 one-dose screen, 48 h (100 = growth as untreated, 0 = no growth, -100 = all killed)
study.conditions: 10 µM unless noted
Method: Growth inhibition of the M14 human tumor cell line is measured as a screen for anti-cancer activity. Cells are grown in 96 well plates and exposed to the test compound for 48 hours. Compounds are tested at a single concentration, which is 10^-5 M for most compounds. The reported endpoint is percent growth (GI% or GIPRCNT), where numbers from 0 - 100% represent growth inhibition, and numbers from -100% - 0 represent cell death. For example, a value of 40 represents 60% growth inhibition. […]
The panel holds about 83,000 compounds, 20% with a hit somewhere; the sample as a whole holds those more often. Active and inactive are the calls of the source. Rule for the calls: active = growth percent below 10; inactive = the rest.

response.value for `CNc1sc(S(=O)(=O)NC)nc1S(=O)(=O)c1ccc(C)cc1` (field: growth) = 101% (inactive)

For reference, reported growth for `CSc1ccc(C(=NNS(=O)(=O)c2ccc(C)cc2)c2ccc(Cl)cc2)cc1` stands at 103% (inactive)

Briefly, growth measured for `CCN(CC)c1ccc(/C=N/NC(=O)c2ccc(NS(C)(=O)=O)cc2)c(O)c1` : 0.206% (active)

Memo: `Cc1ccc(N2CCN(C3=C(Cl)C(=O)c4ncccc4C3=O)CC2)cc1` , reported growth: 70.3% (inactive)

Looking up `NS(=O)(=O)c1ccc(Nc2nc(N/N=C/c3ccc4c(c3)OCO4)nc(Nc3ccccc3)n2)cc1` , I found its growth recorded as 38.7% (inactive)

Data point: `Cc1cc(C)cc(NC2=C(Cl)C(=O)c3nc(C)ccc3C2=O)c1` ; growth = 72.8% (inactive)

Per the record, `CC1CCN(CC(=O)Nn2c(COc3ccccc3)nc3ccccc3c2=O)CC1` has growth of 78.9% (inactive)

# growth (compound: `CN1CCN(CCNc2nc(-c3cccc(NS(=O)(=O)c4cccc5c(N(C)C)cccc45)c3)cs2)CC1` ) is 62.9% (inactive)

In plain terms, `Cc1ccc2c(n1)C(=O)C(Cl)=C(Nc1cccc(C(=O)OC(C)(C)C)c1)C2=O` has a documented growth of 96.5% (inactive)

The compound listed as `CCOC(=O)c1c(NC(=O)c2cccc(C(F)(F)F)c2)sc2c3c(ccc12)OCN(C)C3` shows growth equal to -17% (active)

growth measured on `O=C(N/N=C\c1ccc(F)cc1)c1ccc2nc(-c3ccc(Br)cc3)[nH]c2c1` = 18.8% (inactive)

Entry `Cc1ccc(S(=O)(=O)NCCCNc2nc(Nc3ccc(N4CCN(C)CC4)cc3)nc3ccsc23)cc1` — recorded growth = -69.6% (active)

# compound `C#C[C@]1(O)CC[C@H]2[C@@H]3CC=C4c5sc(Nc6ccc(C)cn6)nc5CC[C@]4(C)[C@H]3CC[C@@]21C` ; its growth = -48.8% (active)

Entry `CCOC(=O)c1ccc(NC2=C(Cl)C(=O)c3nc(C)ccc3C2=O)cc1` — recorded growth = 52.4% (inactive)

response.value for `O=C(CCCCCCN1CC(=O)N2[C@@H](C3CC3)c3[nH]c4ccccc4c3C[C@H]2C1=O)NO` (field: growth) = 60.2% (inactive)

###

Tested on: BT-549 breast
method.notes: NCI-60 one-dose screen, 48 h (100 = growth as untreated, 0 = no growth, -100 = all killed)
study.conditions: 10 µM unless noted
This is part of a sample that, as a whole, favours compounds with a hit. Of some 83,000 tested, about 20% had one in any assay.
measure.name: growth (%)
Unit % implied. Number only.

compound=Brc1ccc(-c2cc(-c3ccc4c(c3)OC=CO4)n[nH]2)s1 measure_name=growth endpoint_value=91.3
compound=Cn1cc(-c2nc(N)nnc2-c2c[nH]c3ccc(Br)cc23)c2cc(F)ccc21 measure_name=growth endpoint_value=96.9
compound=O=C(CCCCCCN1CC(=O)N2[C@@H](c3ccccc3Br)c3[nH]c4ccccc4c3C[C@H]2C1=O)NO measure_name=growth endpoint_value=87.1

Recorded growth for NS(=O)(=O)c1ccc(Nc2nc(Nc3ccccc3)nc(N3N=C(c4ccc(Cl)cc4)CC3c3ccc(Cl)cc3)n2)cc1 (centres undefined) on BT-549 breast was 73.2

growth value, target or system BT-549 breast, for `CCCCCCNC(=O)Oc1ccc(/C(=C(/C)c2ccc(OC)cc2)c2ccc(OCCN3CCCCCC3)cc2)cc1` : 70.3

Measured growth for this entry `CC1(C)C=Cc2cc(/C(N)=N/C(N)=N/c3nc4ccccc4s3)ccc2O1` on BT-549 breast: 86.1

`O=C(CCCCCCNC(=O)C(O)(O)C(F)(F)F)Nc1ncc(-c2ccc(Br)cc2)s1` on BT-549 breast gives growth = -20.5

Tested on BT-549 breast: `COc1ccc2sc(NC(=O)CCCCCCNC(=O)C(O)(O)C(F)(F)F)nc2c1` . Observed growth: 7.95

Test item `COc1ccc(C(=NNS(=O)(=O)c2ccc(C)cc2)c2ccccc2)cc1OC` ; BT-549 breast; reported growth was 112

###

Reported growth is given for each of the following molecules.
System: TK-10 renal
method.notes: NCI-60 one-dose screen, 48 h (100 = growth as untreated, 0 = no growth, -100 = all killed)
study.conditions: 10 µM unless noted
The panel holds about 83,000 compounds, 20% with a hit somewhere; the sample as a whole holds those more often.
A number alone suffices; assume %.

Answered examples (2):
molecule=N#C/C(=N\Nc1ccc(F)cc1)C(=O)Nc1cc(-c2ccccc2)nn1-c1ccccc1 endpoint_value=26.6
molecule=NCCNC(=O)c1cccc(COc2ccccc2NC(=O)c2cc(Br)c(Br)[nH]2)c1 endpoint_value=89

The molecule listed as COc1ccc(C2c3[nH]c4ccc(Cl)cc4c3CCN2c2oc(CO)nc2C#N)cc1 (stereo unspecified) has a reported growth of 93.9

The recorded growth for entry `NS(=O)(=O)c1cccc(Nc2nc(SCC(=O)c3ccc(Cl)cc3)nc3c2CCC3)c1` equals 119

Lab note: `COC(=O)c1cccc(NC2=C(Cl)C(=O)c3nc(C)ccc3C2=O)c1` gave growth of 128

Recorded result, OCC(Nc1ncnc2ccc(-c3cnc4cnccn34)cc12)c1ccccc1 (stereo unspecified) , growth: 40

Form field growth, entry `Brc1ccc(-c2cc(-c3ccc4c(c3)OCCO4)n[nH]2)s1` : 105

Quick note, growth for C/C(CC1(O)C(=O)Nc2ccccc21)=N\O (stereo unspecified) landed at 104

Form: molecule = `COc1cc(C(C)=C(c2ccc(OCCN(C)C)cc2)c2ccc(OCCN(C)C)cc2)ccc1F` ; growth = 97.8

###

System: M14 melanoma
method.notes: NCI-60 one-dose screen, 48 h
study.conditions: 10 µM unless noted
This is part of a sample that, as a whole, favours compounds with a hit. Of some 83,000 tested, about 20% had one in any assay. Activity calls are given as the source filed them. Rule for the calls: active = growth percent below 10; inactive = the rest.
Select the correct class. Options are True for active, False for inactive and nothing else.

item_smiles=COc1ccc(N2CCN(C3=C(Cl)C(=O)c4ncccc4C3=O)CC2)cc1 label_value=False
item_smiles=O=c1nc(Nc2ccc([N+](=O)[O-])cc2O)sc2ccccc12 label_value=False

Prompt: Recorded test call requested for `COc1cc2c3c(cc4c5c(ccc4c3c1OC)OCO5)N(CCN(C)C)C2=O`
Completion: True

Prompt: How was `CCCN1C=C/C(=C\C(=O)n2ccc3ccccc32)c2ccccc21` classified in this test?
Completion: False

Prompt: Hi team, can someone confirm the assay call for `Cc1[nH]c(C(=O)Nc2ccc(S(=O)(=O)N3CCCCC3)cc2OCCOCCOCCOCCOCCOCCOCCOCCOCCOc2cc(S(=O)(=O)N3CCCCC3)ccc2NC(=O)c2[nH]c(C)c3c2CCCCC3=O)c2c1C(=O)CCCC2` ?
Completion: False

Prompt: Could you check what this test reported for `O=C(N/N=C\c1ccc([N+](=O)[O-])cc1)c1ccc2nc(-c3ccc(Br)cc3)[nH]c2c1` ?
Completion: True

Prompt: What is the recorded call for this compound in the test? `C#Cc1cc(C(=O)Nc2ccc(CNCCN3CCOCC3)c(C(F)(F)F)c2)ccc1C`
Completion: False

Prompt: How did this test come out for `CCOC(=O)c1cccc(NC2=C(Cl)C(=O)C(C)=C(C)C2=O)c1` ?
Completion: False

Prompt: Hey, what did the test say about `O=S(=O)(NCCCNc1nccc(-c2[nH]c(-c3ccccc3)nc2-c2ccc(F)c(O)c2)n1)c1cccc(F)c1` ?
Completion: False

Prompt: Hey, what did the test say about `N#Cc1cnc2ccc(-c3cnc4n[nH]nc4c3)cc2c1N1CCc2cc(F)c(Cl)cc21` ?
Completion: False

Prompt: Per the records of this test, what outcome belongs to `C/C(=C(\c1ccc(O)cc1)c1ccc(OCCN2CCCCCC2)cc1)c1ccc(Cl)cc1` ?
Completion: True

Prompt: # lookup: test call for `COc1ccc(-c2c(C(N)=O)c(N)n(Cc3nc4ccccc4[nH]3)c(=O)c2C#N)c(OC)c1`
Completion: False

Prompt: Status in this test for `COc1cc2oc(-c3cccc(NC(=O)[C@@H](N)C(C)C)c3)cc(=O)c2c(OC)c1OC` ?
Completion: False

Prompt: Recorded test call requested for `CC1=C(C)C(=O)C(Nc2cccc(C(=O)OC(C)(C)C)c2)=C(Cl)C1=O`
Completion: False

Prompt: In this assay, the call recorded for `NC1=NC2(CCCC2)N(c2ccc(S(=O)(=O)Nc3nccs3)cc2)C(N)=N1` was what?
Completion: False

Prompt: Which outcome was assigned to `NNc1nnc2nc(Nc3ccccc3)nc(Nc3ccc(S(N)(=O)=O)cc3)n12` in this test?
Completion: False

Prompt: Which outcome did this test record for the compound `O=C(/C=C/C=C/c1csc(Br)n1)NO` ?
Completion: False

Prompt: Entry `CC/C(=C(/c1ccc(Cl)cc1)c1ccc(OCCN)cc1)c1ccccc1` : call = ?
Completion: False

Prompt: Hi, do you know how `Cc1ccc2c(n1)C(=O)C(Cl)=C(Nc1ccc(C(=O)OC(C)(C)C)cc1)C2=O` came out in this test?
Completion: False
